Provide the recorded pIC50 for the entries that follow.
# Test system: Jurkat T cells and human PBLs
# test-summary: IL-2 secretion from activated T cells (ELISA)
# Format: cell-based
# condition-set: Jurkat T cells and human PBLs, PMA/A23187 stimulation, supernatants after 36 hours, ELISA; read-out: IC50 of inhibition of IL-2 secretion
pIC50: −log10 of the molar value.

compound | pIC50
COc1cc(C=CC=O)ccc1O [4H3MC, 4-Hydroxy-3-methoxycinnamaldehyde] | ~5.60

Okay, next one:
query: Lab note: record pIC50 of O=C(O)C=Cc1ccc(O)cc1 [HCA, p-hydroxycinnamic acid, reference compound] tested on Jurkat T cells and human PBLs.
result: 4.74 to 4.82
